Values compiled from ChEMBL document CHEMBL1140232.

Test system: Enterococcus
method: Ratio of kcat to Km of Enterococcus APH(3')-3a
resultType: kcat/Km (×10⁴ /M/s)

>>> endpointvalue("CCCCCCCCCCCCCCCC(=O)NC[C@H]1O[C@@H](O[C@@H]2[C@@H](O)[C@H](N)C[C@H](N)[C@H]2O[C@H]2O[C@H](CN)[C@@H](O)[C@H](O)[C@H]2N)[C@H](O)[C@@H]1O[C@H]1O[C@@H](CN)[C@@H](O)[C@H](O)[C@H]1N")
0.72
>>> endpointvalue("NC[C@@H]1O[C@H](O[C@H]2[C@@H](O)[C@H](O[C@@H]3[C@@H](O)[C@H](N)C[C@H](N)[C@H]3O[C@H]3O[C@H](CN)[C@@H](O)[C@H](O)[C@H]3N)O[C@@H]2Cn2cc(CNC(=O)c3cc(-c4ccccc4)nc4ccccc34)nn2)[C@H](N)[C@@H](O)[C@@H]1O")
0.037
